B1: TRAF3IP2 (parent)
chain: KEHVPTWLQNTHVYSWPKNKKNIL

- Variants of: B1
- PROTOCOL_NOTES: protein stability index of a GFP-peptide fusion (GPS, HEK-293T) (PSI 1-6); higher = more stable;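 note: lentivirally expressed fusions sorted by FACS into six bins by GFP to DsRed ratio, PSI derived from sequencing read proportions per bin multiplied by bin number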
- EXPERIMENTAL_PARAMETERS: c terminus: a fixed tail appended
Where protein stability index equals or exceeds 2, the correct label is Yes; where it does not, the label is No.

>>> df
   variant_annotation  class_label
0                K18H          Yes

Exercise: Is it the case that `K18S` has protein stability index reaching or exceeding 2?
Key: Yes

Exercise: Similarly, `L24T` ?
Key: Yes

Exercise: Same again, this time with `Y14G`
Key: Yes
